Experiment: Inhibition of rat intestinal alpha-glucosidase using p-nitrophenyl alpha-D-glucopyranoside as substrate pretreated for 10 mins followed by substrate addition measured after 5 mins
metric.name: IC50 (µM)

P = CCCCCCCCCCCCCC(=O)c1c(O)cccc1O
Q = CCCCCCCCCCCCCC(=O)c1c(O)cccc1OC
R = O=C(CCCCCCCCc1ccc(O)cc1)c1c(O)cccc1O [MALABARICONE B]
Ranking criterion: IC50, increasing numeric value. Items: as listed above. # format: label list in the order the request specifies R, P, Q
